# measured-target: Tryptophan 2,3-dioxygenase (Homo sapiens, UniProt P48775)
# Sequence (P48775 whole entry): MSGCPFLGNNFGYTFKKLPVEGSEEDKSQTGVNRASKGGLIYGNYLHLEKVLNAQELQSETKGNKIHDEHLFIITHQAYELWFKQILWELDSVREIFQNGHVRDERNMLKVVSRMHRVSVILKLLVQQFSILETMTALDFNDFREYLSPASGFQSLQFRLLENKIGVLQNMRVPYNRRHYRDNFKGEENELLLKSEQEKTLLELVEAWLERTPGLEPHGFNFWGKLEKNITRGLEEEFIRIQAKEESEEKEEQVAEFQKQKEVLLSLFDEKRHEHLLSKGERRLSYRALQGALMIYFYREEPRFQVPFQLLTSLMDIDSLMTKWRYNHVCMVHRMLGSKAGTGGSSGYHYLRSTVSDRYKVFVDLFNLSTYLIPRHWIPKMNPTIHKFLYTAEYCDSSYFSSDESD
# assay-text: Inhibition of human purified TDO assessed as initial rate of L-Trp oxidation at 100 uM of substrate concentration
recorded-endpoint: pIC50
Keep it numeric: pIC50 is minus log10 of the concentration in mol/L.

Query: Report pIC50 on Tryptophan 2,3-dioxygenase (Homo sapiens, UniProt P48775) for this entry: Clc1cccc2c(/C=C/c3cccnc3)c[nH]c12
Reply: 4.49
